Where these numbers come from: PubChem BioAssay (NCI)

System: OVCAR-3 ovarian
Assay: NCI tumour cell line growth inhibition, 48 h
RECORDED_ENDPOINT: TGI

C#CCN(Cc1ccc2nc(-c3ccccc3)c(Cl)nc2c1)c1ccc(F)cc1
> 100 µM
Cn1cc(C2NC(=O)c3ccccc3N2)c2ccccc21 (configuration not stated)
2.03 µM
COc1cc(/C=C2\CC3C4CC=C5CC(OC(C)=O)CC[C@]5(C)C4CC[C@]3(C)C2=O)ccc1OCCN1CCCC1 (some centres not stated)
10.5 µM
O=c1[nH]c2ccccc2n1C1CCNCC1
> 100 µM
CC(=O)OCC1OC(n2c3c(c(-c4ccc(C)cc4)c(C#N)c2=S)C(=O)CC(C)(C)C3)C(OC(C)=O)C(OC(C)=O)C1OC(C)=O (configuration not stated)
> 100 µM
N#Cc1cc2c(cc1C#N)SCCSCCCSCCS2
> 100 µM
COc1cc2c(cc1OS(C)(=O)=O)N=C[C@@H]1CCCN1C2=O
> 100 µM
COc1ccc2c(O)c(Oc3ccc(Cl)cc3)c(=O)oc2c1
> 100 µM
CCC(=C(c1ccc(OCCN2CCCCC2)cc1)c1ccc(OCCN2CCCCC2)cc1)c1ccc(Cl)cc1
> 16.7 µM
C#CCOC(=O)C(N)CC(N)=O (configuration not stated)
> 100 µM
COc1cc2nc3n(c2cc1OC)C(O)c1c(Cl)nc(SC)nc1S3 (configuration not stated)
13.3 µM
Cc1cc(I)cc(CNCCN(C)C)c1O
> 100 µM
